Biological target: Paired box protein Pax-8 (Homo sapiens)
Sequence (Q06710 whole entry): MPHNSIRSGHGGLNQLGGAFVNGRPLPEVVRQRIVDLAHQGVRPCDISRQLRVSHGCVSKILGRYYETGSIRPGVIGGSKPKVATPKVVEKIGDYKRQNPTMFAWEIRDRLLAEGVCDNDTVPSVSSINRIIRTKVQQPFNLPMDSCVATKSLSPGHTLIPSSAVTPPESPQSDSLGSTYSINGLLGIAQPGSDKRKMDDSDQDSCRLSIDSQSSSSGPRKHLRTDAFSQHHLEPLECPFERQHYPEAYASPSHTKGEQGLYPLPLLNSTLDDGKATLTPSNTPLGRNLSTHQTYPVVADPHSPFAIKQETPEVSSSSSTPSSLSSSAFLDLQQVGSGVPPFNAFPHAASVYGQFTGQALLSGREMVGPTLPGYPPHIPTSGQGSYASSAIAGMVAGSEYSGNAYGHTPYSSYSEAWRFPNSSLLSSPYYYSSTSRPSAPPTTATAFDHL
Test: inhibitors of PAX8-driven TPO luciferase reporter, dose response, RMG-I cells, cherry-pick (AID 687027);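 further: luciferase reporter driven by Pax8 target thyroperoxidase promoter measured by SteadyGlo luminescence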
Assay type: functional, cell-based
Calls of active or inactive are those of the source.
OBSERVATION_TYPE: AC50

cpd_smiles=N#C[C@@H]1[C@@H](c2ccc(-c3cccc(F)c3)cc2)[C@H](CO)N1C(=O)NC1CCCC1 target_of_assay="Paired box protein Pax-8 (Homo sapiens)" observation_type=AC50 reading="22.2 µM (active)"
cpd_smiles=COc1cccc(/C=C2\SC(=S)N(CCC(=O)NCCc3ccc(O)cc3)C2=O)c1 target_of_assay="Paired box protein Pax-8 (Homo sapiens)" observation_type=AC50 reading="4.57 µM (active)"
cpd_smiles=C[C@@H]1CN([C@H](C)CO)C(=O)c2cc(NC(=O)Nc3ccc(F)cc3)ccc2O[C@@H](C)CCCCO[C@@H]1CN(C)Cc1ccc(C(F)(F)F)cc1 target_of_assay="Paired box protein Pax-8 (Homo sapiens)" observation_type=AC50 reading="5.91 µM (active)"
cpd_smiles=Nc1ccc(-c2nc3ccc(C(=O)O)cc3s2)cc1 target_of_assay="Paired box protein Pax-8 (Homo sapiens)" observation_type=AC50 reading="2.6 µM (active)"
cpd_smiles=O=C(C[C@@H]1CC[C@@H]2[C@H](COC[C@@H](O)CN2C(=O)Nc2ccc(C(F)(F)F)cc2)O1)NC1Cc2ccccc2C1 target_of_assay="Paired box protein Pax-8 (Homo sapiens)" observation_type=AC50 reading="5.62 µM (active)"
cpd_smiles=CC1(C)CC(=O)c2sc(NC(=O)CCS(=O)(=O)c3ccccc3)nc2C1 target_of_assay="Paired box protein Pax-8 (Homo sapiens)" observation_type=AC50 reading="3.16 µM (active)"
cpd_smiles=COc1ccc(NS(=O)(=O)c2ccc(N3CCCC3)c(NC(S)=Nc3ccc(SC(F)F)cc3)c2)cc1 target_of_assay="Paired box protein Pax-8 (Homo sapiens)" observation_type=AC50 reading="16.4 µM (active)"

###

Target: Heat shock factor protein 1 (Mus musculus, UniProt P38532)
Sequence (P38532 whole entry): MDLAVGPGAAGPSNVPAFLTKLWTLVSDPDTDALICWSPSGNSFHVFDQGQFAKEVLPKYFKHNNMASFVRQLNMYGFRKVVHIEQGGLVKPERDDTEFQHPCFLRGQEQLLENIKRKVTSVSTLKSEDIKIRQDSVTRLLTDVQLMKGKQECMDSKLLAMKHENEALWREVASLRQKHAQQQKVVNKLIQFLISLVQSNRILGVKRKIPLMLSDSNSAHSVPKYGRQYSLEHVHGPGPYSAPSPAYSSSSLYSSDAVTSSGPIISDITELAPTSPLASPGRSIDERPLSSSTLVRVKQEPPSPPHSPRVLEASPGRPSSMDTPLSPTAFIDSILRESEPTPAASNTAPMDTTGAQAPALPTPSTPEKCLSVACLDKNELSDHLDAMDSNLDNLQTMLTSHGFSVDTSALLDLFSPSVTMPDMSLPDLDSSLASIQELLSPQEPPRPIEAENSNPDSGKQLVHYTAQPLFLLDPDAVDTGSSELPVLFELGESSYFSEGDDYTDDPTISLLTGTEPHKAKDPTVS
Test: inhibition of MG132-induced HSE-luciferase signal, confirmation, cell-based, NIH3T3, luminescence, dose retest (AID 2382);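 further: NIH3T3 fibroblasts with HSF1-driven luciferase reporter stressed by proteasome inhibitor MG132; luminescence from HSF1-driven luciferase expression after 8 hours of MG132 stress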
Format: functional
The source made the active and inactive calls.
OBSERVATION_TYPE: EC50

cpd_smiles=CN(C)C(=O)CSc1nnc(O)nc1O reading="> 195 µM (not active)"
cpd_smiles=O=[N+]([O-])c1ccc(S(=O)(=O)c2ccccc2)nc1 reading="5.64 µM (active)"
cpd_smiles=C/N=C1/S/C(=C\c2cc(C)n(-c3ccccc3F)c2C)C(=O)N1C reading="< 0.16 µM (active)"
cpd_smiles=O=C(CCc1nc(-c2cccs2)no1)NCc1ccc(F)cc1Cl reading="> 195 µM (not active)"
cpd_smiles=CN1C(C(=O)Nc2ccc(OC(F)(F)F)cc2)=CC(c2cccs2)=NS1(=O)=O reading="62.2 µM (active)"
cpd_smiles=COc1ccc(/C=N/Nc2ccc(C(=O)O)cc2)cc1Br reading="< 0.16 µM (active)"

###

Biological target: Heat shock factor protein 1 (Mus musculus)
Test: HSF1 potentiators in luciferase reporter cells, confirmation, cell-based, NIH3T3, luminescence, dose retest (AID 435004);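 further: stress induced by proteasome inhibitor MG132 added 30 min after compound; luciferase reporter driven by HSF1 response element in NIH3T3 cells; actives raise luminescence as potentiators of the MG132 stress response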
Format: functional
Calls of active or inactive are those of the source.
Outcome codes: true (1) for active, false (0) for inactive

compound=O=C(Nc1ccccn1)c1ccc2ccccc2n1 group_label="false (0)"
compound="Cn1c(C(=O)OC(C(=O)NC(C)(C)C)c2cccnc2)cc2sccc21 (stereo unspecified)" group_label="false (0)"
compound="Cc1nn(C(C)C(=O)NCCCN2CCCCC2C)c(=O)c2c1sc1ccccc12 (stereo unspecified)" group_label="false (0)"
compound=CN1CCN(C(=O)c2cc3sc4ccccc4c3s2)CC1 group_label="false (0)"
compound=Cc1ccc(C(=O)Cn2nc(C(=O)O)c3ccccc3c2=O)cc1C group_label="false (0)"
compound=CCOC(=O)Nc1ccc(C(=O)Oc2ccccc2)c(O)c1 group_label="true (1)"
compound=COC(=O)C1=C(C)N(Cc2ccc(C)cc2)C(=O)/C1=C\c1cc(OC)c(OC)c(OC)c1 group_label="true (1)"
compound=CCN1CCSc2ccc(C(=O)NCc3cccc(Br)c3)cc21 group_label="false (0)"
compound="Cc1cccn2c(=O)nc(SCC(=O)N3N=C(c4cccs4)CC3c3ccc(F)cc3)nc12 (stereo unspecified)" group_label="false (0)"
compound=Cc1cc2occ(CC(=O)NCc3cccs3)c2cc1C(C)C group_label="false (0)"
compound="COc1ccc(CNC2CCSc3ccccc32)cc1OC (stereo unspecified)" group_label="false (0)"

###

Molecular target: Polyadenylate-binding protein 1 (Homo sapiens, UniProt P11940)
Sequence (P11940 whole entry): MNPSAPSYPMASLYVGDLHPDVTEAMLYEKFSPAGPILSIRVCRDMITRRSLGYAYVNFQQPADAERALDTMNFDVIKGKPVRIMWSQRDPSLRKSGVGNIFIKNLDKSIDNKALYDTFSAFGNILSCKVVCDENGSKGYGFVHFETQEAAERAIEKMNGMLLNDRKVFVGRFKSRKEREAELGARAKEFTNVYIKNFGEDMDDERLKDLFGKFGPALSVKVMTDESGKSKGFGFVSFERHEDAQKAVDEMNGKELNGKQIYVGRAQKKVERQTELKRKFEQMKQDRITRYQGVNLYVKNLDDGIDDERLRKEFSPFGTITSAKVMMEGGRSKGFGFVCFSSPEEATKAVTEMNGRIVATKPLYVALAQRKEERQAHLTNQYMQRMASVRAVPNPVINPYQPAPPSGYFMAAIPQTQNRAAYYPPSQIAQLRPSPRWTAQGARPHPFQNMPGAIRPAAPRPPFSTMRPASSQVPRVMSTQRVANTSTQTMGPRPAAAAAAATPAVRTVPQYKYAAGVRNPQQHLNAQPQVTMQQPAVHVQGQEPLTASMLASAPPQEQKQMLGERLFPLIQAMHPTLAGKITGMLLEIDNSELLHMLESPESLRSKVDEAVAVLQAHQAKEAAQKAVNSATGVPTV
Experiment: PABP1 MLLE–PAM2 binding inhibitor potency, dose response, biochemical, fluorescence polarization, FITC-PAM2 peptide (AID 602259)
Type: functional
Settings: read-out: IC50_Mean
Calls of active or inactive are those of the source.
Reported IC50 values follow for various compounds
OBSERVATION_TYPE: IC50

compound=Nc1nc(O)cc(N=Nc2ccc(O)cc2)n1 target_of_assay="Polyadenylate-binding protein 1 (Homo sapiens, UniProt P11940)" reading="43.8 µM (inactive)"
compound=NS(=O)(=O)c1ccc(N/N=C/c2ccc(O)c(O)c2O)c([N+](=O)[O-])c1 target_of_assay="Polyadenylate-binding protein 1 (Homo sapiens, UniProt P11940)" reading="> 66 µM (inactive)"
compound=COc1ccc(-c2csc(NC(=O)CSc3n[nH]c(N)n3)n2)cc1 target_of_assay="Polyadenylate-binding protein 1 (Homo sapiens, UniProt P11940)" reading="> 66 µM (inactive)"
compound="CCOC(=O)CC1=C(C(=O)OCC)C(c2ccc(C)o2)C(C#N)=C(N)O1 (stereo not drawn)" target_of_assay="Polyadenylate-binding protein 1 (Homo sapiens, UniProt P11940)" reading="32 µM (inactive)"
compound=COc1ccc(-n2ccnc(SCC(=O)NC3CCCC3)c2=O)cc1OC target_of_assay="Polyadenylate-binding protein 1 (Homo sapiens, UniProt P11940)" reading="> 66 µM (inactive)"
compound="O=C(NC(=S)NC1CCSC1=O)c1cccc([N+](=O)[O-])c1 (stereo not drawn)" target_of_assay="Polyadenylate-binding protein 1 (Homo sapiens, UniProt P11940)" reading="> 66 µM (inactive)"
compound=O=C(CSc1nc(O)c(Cc2ccccc2)c(=O)[nH]1)c1ccccc1 target_of_assay="Polyadenylate-binding protein 1 (Homo sapiens, UniProt P11940)" reading="52.5 µM (inactive)"
compound=Cc1ccc(NC(=O)CN2C(=O)S/C(=C/c3ccncc3)C2=O)cc1 target_of_assay="Polyadenylate-binding protein 1 (Homo sapiens, UniProt P11940)" reading="> 66 µM (inactive)"
compound=CC(=O)Nc1ccc(SCC(=O)Nc2ccccc2Oc2ccccc2)cc1 target_of_assay="Polyadenylate-binding protein 1 (Homo sapiens, UniProt P11940)" reading="> 66 µM (inactive)"
compound=Cc1cc(NS(=O)(=O)c2ccc(NC(=S)NC(=O)c3ccc(Br)cc3)cc2)no1 target_of_assay="Polyadenylate-binding protein 1 (Homo sapiens, UniProt P11940)" reading="> 66 µM (inactive)"
compound=COc1ccc(NS(=O)(=O)c2ccc(N3CCCC3)c(NC(S)=Nc3ccc(SC(F)F)cc3)c2)cc1 target_of_assay="Polyadenylate-binding protein 1 (Homo sapiens, UniProt P11940)" reading="> 66 µM (inactive)"
compound=CN1CCc2cc3c(c4c2[C@H]1[C@H](O)c1ccccc1-4)OCO3 target_of_assay="Polyadenylate-binding protein 1 (Homo sapiens, UniProt P11940)" reading="25.8 µM (inactive)"
compound=CCc1cc(SC#N)cc(C)c1NC(=O)CCl target_of_assay="Polyadenylate-binding protein 1 (Homo sapiens, UniProt P11940)" reading="> 66 µM (inactive)"

###

Biological target: Sentrin-specific protease 6 (Homo sapiens, UniProt Q9GZR1);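 further: Luminescence-based dose-response confirmatory assay of SENP6 inhibition, following up an ultra-high-throughput screen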
Sequence (Q9GZR1 whole entry): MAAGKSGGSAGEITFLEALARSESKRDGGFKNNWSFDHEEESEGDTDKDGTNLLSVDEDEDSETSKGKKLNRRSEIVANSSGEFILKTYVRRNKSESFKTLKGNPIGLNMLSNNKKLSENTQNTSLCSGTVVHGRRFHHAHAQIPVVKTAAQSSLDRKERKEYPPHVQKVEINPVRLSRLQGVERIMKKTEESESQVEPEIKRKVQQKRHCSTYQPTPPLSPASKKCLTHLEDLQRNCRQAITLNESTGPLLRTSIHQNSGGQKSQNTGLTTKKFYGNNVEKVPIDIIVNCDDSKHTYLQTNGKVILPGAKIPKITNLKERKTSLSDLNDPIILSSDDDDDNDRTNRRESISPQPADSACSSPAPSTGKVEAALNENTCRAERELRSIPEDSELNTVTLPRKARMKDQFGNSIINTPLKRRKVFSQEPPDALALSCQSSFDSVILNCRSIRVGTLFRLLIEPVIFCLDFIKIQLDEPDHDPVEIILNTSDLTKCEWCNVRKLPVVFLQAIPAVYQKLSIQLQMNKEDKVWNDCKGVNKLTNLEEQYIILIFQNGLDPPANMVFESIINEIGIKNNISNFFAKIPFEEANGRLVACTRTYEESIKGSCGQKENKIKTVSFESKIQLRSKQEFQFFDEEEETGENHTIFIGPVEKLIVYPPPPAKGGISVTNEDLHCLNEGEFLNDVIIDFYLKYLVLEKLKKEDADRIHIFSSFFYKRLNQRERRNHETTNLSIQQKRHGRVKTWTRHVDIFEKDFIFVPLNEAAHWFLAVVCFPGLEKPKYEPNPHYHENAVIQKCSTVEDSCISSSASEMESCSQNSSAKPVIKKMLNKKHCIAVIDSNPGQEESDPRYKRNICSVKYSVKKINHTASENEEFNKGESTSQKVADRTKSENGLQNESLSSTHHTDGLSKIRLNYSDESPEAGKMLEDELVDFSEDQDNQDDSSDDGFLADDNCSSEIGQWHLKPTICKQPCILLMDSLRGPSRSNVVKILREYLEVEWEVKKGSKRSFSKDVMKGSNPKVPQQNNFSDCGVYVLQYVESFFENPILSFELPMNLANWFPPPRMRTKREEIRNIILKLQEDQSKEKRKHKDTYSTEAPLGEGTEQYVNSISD
Type: functional
The source made the active and inactive calls.
Reported IC50 values follow for various molecules
OBSERVATION_TYPE: IC50

cpd_smiles=CCOC(=O)Nc1ccc(C(=O)Oc2ccccc2)c(O)c1 reading="47.6 µM (active)"
cpd_smiles=CCOc1ccccc1NC(=O)Nc1ccc2c(c1)CCC2 reading="9.82 µM (active)"
cpd_smiles=COc1ccc(/C(C)=N/OCC(=O)Nc2nc3ccccc3s2)cc1OC reading="36.1 µM (active)"
cpd_smiles=CSc1ccccc1NC(=O)c1cc(C2CC2)on1 reading="30.7 µM (active)"
cpd_smiles=Cc1ccc(-c2cc(-c3ccccc3)no2)cc1 reading="18.6 µM (active)"
cpd_smiles=COc1cc([N+](=O)[O-])ccc1N/C=C/C(=O)c1cccs1 reading="1.15 µM (active)"
